A collection of compounds and their measured viability, T/C
# Tested on: 926638-142-R-J1-PDC complex spheroid viability;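 note: spheroids exposed to drugs for one week before readout; percent viability relative to DMSO vehicle control wells set as 100%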
# Procedure text: Anticancer human tumor 926638-142-R-J1-PDC patient-derived endometrial carcinoma cell line growth inhibition [POLQ]
# Condition parameters: second compound 3.16 µM; first compound 0.1 µM; hits give low values
Quick note: give the figure in %, leave out the unit.

Example results:
[
  {
    "Compound": "O=c1[nH]cc(F)c(=O)[nH]1 + Nc1ccc(C#CCN(C(=O)Cc2ncc(C(F)(F)F)cc2C(F)(F)F)c2ccc(F)cc2)nn1",
    "Unit label": "%",
    "Recorded result": 93.5
  },
  {
    "Compound": "CCCS(=O)(=O)Nc1ccc(F)c(C(=O)c2c[nH]c3ncc(-c4ccc(Cl)cc4)cc23)c1F + Cc1cccc(N(C)C(=O)C2C(O)CCN2c2nc(C)cc(C(F)(F)F)c2C#N)c1",
    "Unit label": "%",
    "Recorded result": 114
  },
  {
    "Compound": "COc1cccc(OCCCN)c1-c1cc(Nc2cnc(C#N)cn2)n[nH]1 + COC1C(OC(N)=O)C(O)C(Oc2ccc3c(O)c(NC(=O)c4ccc(O)c(CC=C(C)C)c4)c(=O)oc3c2C)OC1(C)C",
    "Unit label": "%",
    "Recorded result": 46.2
  },
  {
    "Compound": "CC[C@@]1(O)C(=O)OCc2c1cc1n(c2=O)Cc2cc3c(CN(C)C)c(O)ccc3nc2-1 + Cc1cccc(N(C)C(=O)C2C(O)CCN2c2nc(C)cc(C(F)(F)F)c2C#N)c1",
    "Unit label": "%",
    "Recorded result": 47
  }
]

-- ask Note viability, T/C for the compound shown: O=C(c1cc(Cc2n[nH]c(=O)c3ccccc23)ccc1F)N1CCN(C(=O)C2CC2)CC1 + COC1C(OC(N)=O)C(O)C(Oc2ccc3c(O)c(NC(=O)c4ccc(O)c(CC=C(C)C)c4)c(=O)oc3c2C)OC1(C)C
-- reply 102

-- ask Provide one value: measured viability, T/C of O=C(Nc1ccc(O)c(NS(=O)(=O)c2ccc(F)cc2)c1)c1ccc(-c2ccccc2)cc1 + Cc1cccc(N(C)C(=O)C2C(O)CCN2c2nc(C)cc(C(F)(F)F)c2C#N)c1
-- reply 91.5

-- ask Return viability, T/C (reported value) for this compound: COc1cc2cc(C(=O)CCC(=O)O)sc2cc1OC + COC1C(OC(N)=O)C(O)C(Oc2ccc3c(O)c(NC(=O)c4ccc(O)c(CC=C(C)C)c4)c(=O)oc3c2C)OC1(C)C
-- reply 101

-- ask Output viability, T/C of C#Cc1c(F)ccc2cc(O)cc(-c3ncc4c(N5CC6CCC(C5)N6)nc(OCC56CCCN5CC(F)C6)nc4c3F)c12 (stereo unspecified) + COC1C(OC(N)=O)C(O)C(Oc2ccc3c(O)c(NC(=O)c4ccc(O)c(CC=C(C)C)c4)c(=O)oc3c2C)OC1(C)C
-- reply 84.2

-- ask Please look at this compound and report its viability, T/C: CNCc1ccc(-c2[nH]c3cc(F)cc4c3c2CCNC4=O)cc1 + Cc1cccc(N(C)C(=O)C2C(O)CCN2c2nc(C)cc(C(F)(F)F)c2C#N)c1
-- reply 92.8

-- ask Consider the compound COc1ccc([C@@H](O)c2cc(-c3ncnc4cc(N5CCOCC5)ccc34)c(F)cc2Cl)nn1 + Cc1cccc(N(C)C(=O)C2C(O)CCN2c2nc(C)cc(C(F)(F)F)c2C#N)c1 and give its recorded viability, T/C.
-- reply 88.1

-- ask Let me know recorded viability, T/C for COc1cccc(OCCCN)c1-c1cc(Nc2cnc(C#N)cn2)n[nH]1 + Nc1ccc(C#CCN(C(=O)Cc2ncc(C(F)(F)F)cc2C(F)(F)F)c2ccc(F)cc2)nn1 , thanks.
-- reply 43.4
